assay: in vivo; settings: male, C57Bl/6, mouse, plasma, po, 10 mg/kg
parameter: Cmax (ng/mL)

Cc1ccc(C(=O)Nc2ccc(CN3CCN(C)CC3)c(C(F)(F)F)c2)cc1C#Cc1cnc2cccnn12 ... 200

* * *

test system: hiPSC-CMs; experiment: hiPSC-CM contractility; format: cell-based; conditions: Homo sapiens, 96 h, read-out: hiPSC-CM contractility IC50
parameter: IC50

Cc1ccc(C(=O)Nc2ccc(CN3CCN(C)CC3)c(C(F)(F)F)c2)cc1C#Cc1cnc2cccnn12 [Ponatinib] ... > 1.5 µM
